System: UACC-257 melanoma
Test: NCI-60 one-dose screen, 48 h (100 = growth as untreated, 0 = no growth, -100 = all killed)
Conditions: 10 µM unless noted
About 83,000 compounds went through this panel and 20% of them were active in at least one assay; those are over-represented in the sample as a whole. Activity calls are given as the source filed them. Rule for the calls: active = growth percent below 10; inactive = the rest.
readout-kind: growth

Query string: Item: O=C1C=CC(=O)N1CO Test system: UACC-257 melanoma Read-out: growth Value: ?
Result string: 109% (inactive)

Query string: Record CN1CCN(Cc2ccc(NC(=O)c3cncc(C#Cc4ncc5cnccn45)c3)cc2C(F)(F)F)CC1 : what is its growth with UACC-257 melanoma?
Result string: 55.3% (inactive)

Query string: What reported growth corresponds to O=C(/C=C/c1cc([N+](=O)[O-])ccc1Cl)c1ccccc1 on UACC-257 melanoma?
Result string: 104% (inactive)

Query string: For the record CN(C)c1ccc(/C=C(\C#N)c2nc3ccccc3n2C)cc1 , what value of growth is listed for UACC-257 melanoma?
Result string: 43.9% (inactive)

Query string: So what growth did Cn1c(=O)c2c3c(oc2c2ccccc21)C(=O)c1ccccc1C3=O get with UACC-257 melanoma?
Result string: 106% (inactive)

Query string: Recall the recorded growth for COc1cc(C(=O)/C=C/c2cn(-c3ccccc3)nc2-c2cccc(Nc3ccnc4cc(Cl)ccc34)c2)cc(OC)c1OC with UACC-257 melanoma and state it.
Result string: 111% (inactive)

Query string: Request - read-out growth | tested on UACC-257 melanoma | compound CCCCNCC(O)c1cc2c(Cl)cc(Cl)cc2c2cc(C(F)(F)F)ccc12 (stereo unspecified)
Result string: -72.4% (active)

Query string: What reported growth corresponds to O=C1Nc2ccccc2/C1=C/c1c[nH]c2ccccc12 on UACC-257 melanoma?
Result string: 89.2% (inactive)

Query string: Please tell me: growth of COc1ccc(-c2nc(-c3ccccc3OCc3ccccc3OC)nc(C)c2C(C)=O)cc1 , system UACC-257 melanoma?
Result string: 96% (inactive)

Query string: Test system UACC-257 melanoma; read-out growth; what value for O=C(NC1CC1)c1ccc(-c2nc3ccc4[nH]ncc4c3c3c2CCCC3)cc1 ?
Result string: 60.2% (inactive)

Query string: Notebook: pull reported growth for UACC-257 melanoma, entry COc1cc(C)cc2oc3oc(=O)c(-c4csc(-c5cc6ccccc6oc5=O)n4)cc3c(=O)c12
Result string: 115% (inactive)

Query string: Notebook: pull reported growth for UACC-257 melanoma, entry COc1ccc(NC(=O)C2c3ccccc3C(=O)N(CC(C)C)C2c2cccs2)cc1 (stereo unspecified)
Result string: 97.2% (inactive)

Query string: Kindly state the measured growth obtained for O=C(NNC(=S)Nc1ccccc1)c1ccc(Nc2ncnc3c2cnn3-c2cccc(Br)c2)cc1 with UACC-257 melanoma.
Result string: 114% (inactive)

Query string: UACC-257 melanoma / growth / FC1(F)CCN(Cc2c[nH]c3cc(Cl)ccc23)C[C@H]1CCc1ccccc1 : value?
Result string: 53.2% (inactive)

Query string: Notebook: pull reported growth for UACC-257 melanoma, entry O=C(CI)NCCNc1cccc2c(S(=O)(=O)O)cccc12
Result string: 108% (inactive)

Query string: For UACC-257 melanoma, provide growth of COc1ccc(-c2n[nH]nc2-c2cc(OC)c3c(c2)OCO3)cc1 please.
Result string: 68% (inactive)

Query string: Hello, I am looking for reported growth with UACC-257 melanoma for CN1CCN(Cc2ccc(NC(=O)c3cnc(F)c(C#Cc4cnc(N)c5ncccc45)c3)cc2C(F)(F)F)CC1 . Could you help?
Result string: 13.5% (inactive)

Query string: Kindly state the measured growth obtained for CCOC(=O)C1=C(C)NC(SCc2nnc(-c3ccc(Cl)cc3)o2)=NC1c1ccc(Cl)cc1 (stereo unspecified) with UACC-257 melanoma.
Result string: 86.9% (inactive)

Query string: // fetch UACC-257 melanoma growth for COc1cc(Nc2ccnc3ccc(Br)cc23)cc(OC)c1OC
Result string: 38.2% (inactive)

Query string: Return growth measured with UACC-257 melanoma given this compound: O=C(CCCCCCc1nc2ccc(Br)cc2[nH]1)NO
Result string: -11% (active)

Query string: Hi! What's the reported growth for O=C1CC2(O)CSc3nc(=O)cc(n32)N1 (stereo unspecified) on UACC-257 melanoma?
Result string: 99.2% (inactive)

Query string: Fill in the recorded growth for this compound, with UACC-257 melanoma as test system: CC(=O)N1N=C(c2ccc(C)cc2)CC1c1cn(-c2ccccc2)nc1-c1cccc(Nc2ccnc3cc(Cl)ccc23)c1 (stereo unspecified)
Result string: 106% (inactive)

Query string: Report growth for O=C(Nc1ccc(OS(=O)(=O)c2ccc(F)cc2)cc1)C12CC3CC(CC(C3)C1)C2 tested on UACC-257 melanoma.
Result string: 65.3% (inactive)

Query string: Which measured growth belongs to O=C1OCC2=C1C(c1ccc(Cl)c(Cl)c1)c1cc3c(cc1N2CCO)CCC3 (stereo unspecified) , tested on UACC-257 melanoma?
Result string: 60.2% (inactive)

Query string: Test system UACC-257 melanoma; read-out growth; what value for CCCCCCCCCCC(C(O)c1ccccc1)N1CCCCC1 (stereo unspecified) ?
Result string: -1.19% (active)

Query string: Notebook: pull reported growth for UACC-257 melanoma, entry Cc1nn(-c2ccc(Cl)cc2)c(=O)n1CCN1CCOCC1
Result string: 73.4% (inactive)

Query string: Hello, I am looking for reported growth with UACC-257 melanoma for CC(C)CC(NC(=O)OCC1c2ccccc2-c2ccccc21)C(=O)O (stereo unspecified) . Could you help?
Result string: 102% (inactive)

Query string: // lookup growth | system=UACC-257 melanoma | key= NC(=Nc1ccccc1)SCCCSC(N)=Nc1ccccc1
Result string: 108% (inactive)

Query string: Form field: growth recorded for O=C1/C(=C\c2cccn2Cc2ccc(F)cc2)c2ccccc2N1c1c(Cl)cccc1Cl with UACC-257 melanoma (enter value)
Result string: 90.3% (inactive)

Query string: Could you share what growth was measured for COc1ccc2[nH]c(C(=O)OCc3ccc4c(Br)cc(Br)c(O)c4n3)cc2c1 , tested on UACC-257 melanoma?
Result string: -72.8% (active)

Query string: For UACC-257 melanoma, provide growth of F please.
Result string: 0.483% [6.87 mM] (active)
